Entries and their MIC
# System: Staphylococcus aureus 019 MRSA (ATCC 33591)
Express the result in µg/mL but write the number alone.

**Q:** Which measured MIC belongs to COC(=O)CN1CN(c2c(F)cc(N3C[C@H](CNC(=S)OC)OC3=O)cc2F)CC1=O , tested on Staphylococcus aureus 019 MRSA (ATCC 33591)?
**A:** 1

**Q:** Which measured MIC belongs to COC(=S)NC[C@H]1CN(c2cc(F)c(N3CC(=O)N(CC(=O)OC(C)(C)C)C3)c(F)c2)C(=O)O1 , tested on Staphylococcus aureus 019 MRSA (ATCC 33591)?
**A:** 2

**Q:** Which measured MIC belongs to COC(=S)NC[C@H]1CN(c2cc(F)c(N3CC(=O)N(C)C3)c(F)c2)C(=O)O1 , tested on Staphylococcus aureus 019 MRSA (ATCC 33591)?
**A:** 0.25

* * *

Quick record: MIC, Enterococcus sp 034 S (Enterococcus faecalis ATCC 29212).
Express the result in µg/mL but write the number alone.

Reference set (5 entries):
COC(=S)NC[C@H]1CN(c2cc(F)c(N3CC(=O)N(C)C3)c(F)c2)C(=O)O1 [Example 164]
0.5
CCOC(=S)NC[C@H]1CN(c2cc(F)c(N3CNC(=O)C3)c(F)c2)C(=O)O1 [Example 166]
1
COC(=S)NC[C@H]1CN(c2cc(F)c(N3CC(=O)N(CC(=O)OC(C)(C)C)C3)c(F)c2)C(=O)O1 [Example 168]
2
CC(C)OC(=S)NC[C@H]1CN(c2cc(F)c(N3CNC(=O)C3)c(F)c2)C(=O)O1 [Example 167]
8
CCCOC(=S)NC[C@H]1CN(c2cc(F)c(N3CNC(=O)C3)c(F)c2)C(=O)O1 [Example 165]
2

// below: MIC requested for another molecule
**Q:** Returns the measured MIC for the input molecule. Input: COC(=O)CN1CN(c2c(F)cc(N3C[C@H](CNC(=S)OC)OC3=O)cc2F)CC1=O [Example 169]
**A:** 0.5

* * *

measure_name: melting point (°C)
Express the result in °C but write the number alone.

Reference set (8 entries):
CCOC(=S)NC[C@H]1CN(c2ccc(N3CCN(c4ccccc4)C3=O)c(F)c2)C(=O)O1
195
CNC(=S)NC[C@H]1CN(c2ccc(N3CCOC3=O)c(F)c2)C(=O)O1
144
CCOC(=O)C(=O)NC[C@H]1CN(c2ccc(N3CCOC3=O)c(F)c2)C(=O)O1
160
O=C1OCCN1c1ccc(N2C[C@H](CNC(=S)NCc3ccccn3)OC2=O)cc1
165
CCC(=S)NC[C@H]1CN(c2cc(F)c(N3CCOC3=O)c(F)c2)C(=O)O1
168
CC(C)OC(=S)NC[C@H]1CN(c2ccc(N3CC(=O)N(Cc4ccccc4)C3)c(F)c2)C(=O)O1
192
CC(=O)NC[C@H]1CN(c2ccc(N3CCN(C)C3=O)c(F)c2)C(=O)O1
182
COC(=O)NC[C@H]1CN(c2cc(F)c(N3CCOC3=O)c(F)c2)C(=O)O1
157

**Q:** Returns the measured melting point for the input compound. Input: CC(=O)NC[C@H]1CN(c2ccc(N3CCOC3=O)c(C(F)(F)F)c2)C(=O)O1
**A:** 143

**Q:** Returns the measured melting point for the input compound. Input: CC(=S)NC[C@H]1CN(c2ccc(N3CCN(c4ccccc4)C3=O)c(F)c2)C(=O)O1
**A:** 165

**Q:** Returns the measured melting point for the input compound. Input: CC(=S)NC[C@H]1CN(c2ccc(N3CCOC3=O)cc2)C(=O)O1
**A:** 195

**Q:** Returns the measured melting point for the input compound. Input: CCOC(=S)NC[C@H]1CN(c2ccc(-n3c(=O)oc4ccccc43)cc2)C(=O)O1
**A:** 147

* * *

# Tested on: Enterococcus sp 154 R (Enterococcus faecium NCTC 12202)
measure_name: MIC (µg/mL)
Express the result in µg/mL but write the number alone.

Reference set (5 entries):
COC(=O)CN1CN(c2c(F)cc(N3C[C@H](CNC(=S)OC)OC3=O)cc2F)CC1=O
1
COC(=S)NC[C@H]1CN(c2cc(F)c(N3CC(=O)N(C)C3)c(F)c2)C(=O)O1
0.5
CC(C)OC(=S)NC[C@H]1CN(c2cc(F)c(N3CNC(=O)C3)c(F)c2)C(=O)O1
8
CCOC(=S)NC[C@H]1CN(c2cc(F)c(N3CNC(=O)C3)c(F)c2)C(=O)O1
1
CCCOC(=S)NC[C@H]1CN(c2cc(F)c(N3CNC(=O)C3)c(F)c2)C(=O)O1
2

// below: MIC requested for another compound
**Q:** Which measured MIC belongs to COC(=S)NC[C@H]1CN(c2cc(F)c(N3CC(=O)N(CC(=O)OC(C)(C)C)C3)c(F)c2)C(=O)O1 , tested on Enterococcus sp 154 R (Enterococcus faecium NCTC 12202)?
**A:** 2

* * *

measure_name: melting point (°C)
Express the result in °C but write the number alone.

Reference set (3 entries):
CC(=S)NC[C@H]1CN(c2ccc(N3CCN(C)C3=S)c(F)c2)C(=O)O1
111
CC(C)OC(=S)NC[C@H]1CN(c2ccc(N3CCN(C)C3=S)c(F)c2)C(=O)O1
183
CNC(=S)NC[C@H]1CN(c2ccc(N3CCOC3=O)cc2)C(=O)O1
175

// below: melting point requested for another molecule
**Q:** Returns the measured melting point for the input molecule. Input: COC(=S)NC[C@H]1CN(c2ccc(N3CCN(C)C3=S)c(F)c2)C(=O)O1
**A:** 179

* * *

measure_name: melting point (°C)
Express the result in °C but write the number alone.

COCCOC(=S)NC[C@H]1CN(c2ccc(N3CCOC3=O)cc2)C(=O)O1
149
CC(C)OC(=S)NC[C@H]1CN(c2ccc(N3CCN(c4ccc(F)cc4)C3=O)c(F)c2)C(=O)O1
220

**Q:** Returns the measured melting point for the input molecule. Input: O=C1OCCN1c1ccc(N2C[C@H](CNC(=S)OCC(F)(F)F)OC2=O)cc1
**A:** 181

* * *

Kindly return Yes if reported melting point is no lower than 200 °C; return No if it is lower.

See these solved cases before continuing.
CC(=O)NC[C@H]1CN(c2cc(F)c(N3CCOC3=O)c(F)c2)C(=O)O1
Yes
CCCOC(=S)NC[C@H]1CN(c2ccc(N3CCOC3=O)cc2)C(=O)O1
No
CC(=S)NC[C@H]1CN(c2ccc(-n3c(=O)oc4ccccc43)c(F)c2)C(=O)O1
No
COC(=S)NC[C@H]1CN(c2ccc(N3CCN(C)C3=O)cc2)C(=O)O1
Yes
COC(=S)NC[C@H]1CN(c2ccc(N3CCOC3=O)cc2)C(=O)O1
No

**Q:** Assess whether reported melting point for CC(=O)NC[C@H]1CN(c2ccc(N3CC(=O)N(C)C3)c(F)c2)C(=O)O1 sits at 200 °C or higher.
**A:** Yes

* * *

Entries and their melting point
Express the result in °C but write the number alone.

Reference set (6 entries):
CC(=O)NC[C@H]1CN(c2ccc(N3CCN(C)C3=S)c(F)c2)C(=O)O1
171
CC(=O)NC[C@H]1CN(c2ccc(N3CCN(c4ccccc4)C3=O)c(F)c2)C(=O)O1
182
COCN1CN(c2ccc(N3C[C@H](CNC(=S)OC)OC3=O)cc2F)CC1=O
160
COC(=S)NC[C@H]1CN(c2ccc(N3CCN(Cc4ccccc4)C3=O)cc2)C(=O)O1
170
C=CC(=O)NC[C@H]1CN(c2ccc(N3CCOC3=O)c(F)c2)C(=O)O1
196
COC(=S)NC[C@H]1CN(c2ccc(N3CCN(C)C3=O)c(F)c2)C(=O)O1
146

// below: melting point requested for another compound
**Q:** Returns the measured melting point for the input compound. Input: COC(=S)NC[C@H]1CN(c2ccc(N3CCN(c4ccccc4)C3=O)c(F)c2)C(=O)O1
**A:** 174

* * *

Entries and their melting point
Express the result in °C but write the number alone.

Reference set (3 entries):
COC(=S)NC[C@H]1CN(c2ccc(N3CC(=O)N(C)C3)c(F)c2)C(=O)O1
218
CCC(=O)NC[C@H]1CN(c2ccc(N3CCOC3=O)c(C(F)(F)F)c2)C(=O)O1
143
NC(=S)NC[C@H]1CN(c2ccc(N3CCOC3=O)c(F)c2)C(=O)O1
178

**Q:** Returns the measured melting point for the input compound. Input: CCOC(=S)NC[C@H]1CN(c2ccc(N3CCN(c4ccc(F)cc4)C3=O)c(F)c2)C(=O)O1
**A:** 215

* * *

Quick record: MIC, Mycobacterium MTCC 006.
Express the result in µg/mL but write the number alone.

CCOC(=S)NC[C@H]1CN(c2cc(F)c(N3CNC(=O)C3)c(F)c2)C(=O)O1
32
CCCOC(=S)NC[C@H]1CN(c2cc(F)c(N3CNC(=O)C3)c(F)c2)C(=O)O1
32
COC(=O)CN1CN(c2c(F)cc(N3C[C@H](CNC(=S)OC)OC3=O)cc2F)CC1=O
8

**Q:** Which measured MIC belongs to CC(C)OC(=S)NC[C@H]1CN(c2cc(F)c(N3CNC(=O)C3)c(F)c2)C(=O)O1 , tested on Mycobacterium MTCC 006?
**A:** 32

**Q:** Which measured MIC belongs to COC(=S)NC[C@H]1CN(c2cc(F)c(N3CC(=O)N(C)C3)c(F)c2)C(=O)O1 , tested on Mycobacterium MTCC 006?
**A:** 4

**Q:** Which measured MIC belongs to COC(=S)NC[C@H]1CN(c2cc(F)c(N3CC(=O)N(CC(=O)OC(C)(C)C)C3)c(F)c2)C(=O)O1 , tested on Mycobacterium MTCC 006?
**A:** 32
